FYI, the data here is from PubChem BioAssay (NCI).

I'd be grateful if you could share measured TGI for these entries.
System: IGROV1 ovarian
TEST METHOD NOTES: NCI tumour cell line growth inhibition, 48 h

Form: compound = COc1ccc(C2=NN(C(=O)c3cc(OC)c(OC)c(OC)c3)C(c3ccc(N(C)C)cc3)C2)cc1 (centres undefined) ; TGI = > 100 µM

Form: compound = O=c1[nH]c(=O)n(C2OC(CO)C(O)C2O)cc1Oc1ccccc1 (centres undefined) ; TGI = > 100 µM

Form: compound = O=C(c1ccc(Cl)cc1)N(C(=S)OCc1ccccn1)c1ccccc1 ; TGI = > 100 µM

Form: compound = O=C1c2cccc(NCCN=Cc3ccccc3O)c2C(=O)c2c(NCCN=Cc3ccccc3O)cccc21 ; TGI = 0.504 µM
